Target: α2-adrenergic receptor (Rattus norvegicus)
Construct: Homogenates of rat cerebral cortex; from tissue; host or cells: rat cerebral cortex homogenate (membranes)
Sequence (P22909 1-465): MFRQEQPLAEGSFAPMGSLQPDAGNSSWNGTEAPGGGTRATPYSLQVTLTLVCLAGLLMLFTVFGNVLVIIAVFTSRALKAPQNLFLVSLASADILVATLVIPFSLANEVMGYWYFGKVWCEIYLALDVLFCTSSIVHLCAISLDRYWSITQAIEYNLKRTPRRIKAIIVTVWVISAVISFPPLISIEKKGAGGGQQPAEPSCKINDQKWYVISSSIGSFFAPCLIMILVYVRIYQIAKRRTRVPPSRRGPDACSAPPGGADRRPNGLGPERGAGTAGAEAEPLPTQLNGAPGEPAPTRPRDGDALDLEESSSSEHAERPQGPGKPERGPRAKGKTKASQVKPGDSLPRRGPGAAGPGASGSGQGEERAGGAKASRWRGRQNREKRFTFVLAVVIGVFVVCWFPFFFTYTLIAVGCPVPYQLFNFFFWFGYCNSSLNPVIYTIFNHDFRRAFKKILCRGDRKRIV
Assay: Tritiated Clonidine Receptor Binding Assay (inhibition of 3H-clonidine binding to rat cerebral cortex membranes)
Conditions: 0.4 nM 3H-clonidine, rat cerebral cortex membranes
outcomeMeasure: Ki

INSERT INTO assay_data (molecule, outcomemeasure, measured) VALUES
  ('CN1c2ccccc2CC1(C)C1=NCCN1 (stereo not shown) [Example 1F]', 'Ki', '3.39 nM'),
  ('CCN1c2ccccc2CC1C1=NCCN1 (stereo not shown) [Example 1C]', 'Ki', '0.91 nM'),
  ('CN1c2ccc(F)cc2CC1C1=NCCN1 (stereo not shown) [Example 1A]', 'Ki', '0.92 nM'),
  ('CN1c2ccccc2CC1C1=NCCN1 (stereo not shown) [Example 1B]', 'Ki', '0.46 nM');
